The reported numbers originate from patent US12227501B2.

molecular target: UniProt:P00533; assay: WT-EGFR Kinase Assay (TR-FRET, 2 mM ATP); format: biochemical; settings: EGFR Wildtyp- 2 mM ATP IC50 [mol/l] (median)
Sequence (P00533 669-1210): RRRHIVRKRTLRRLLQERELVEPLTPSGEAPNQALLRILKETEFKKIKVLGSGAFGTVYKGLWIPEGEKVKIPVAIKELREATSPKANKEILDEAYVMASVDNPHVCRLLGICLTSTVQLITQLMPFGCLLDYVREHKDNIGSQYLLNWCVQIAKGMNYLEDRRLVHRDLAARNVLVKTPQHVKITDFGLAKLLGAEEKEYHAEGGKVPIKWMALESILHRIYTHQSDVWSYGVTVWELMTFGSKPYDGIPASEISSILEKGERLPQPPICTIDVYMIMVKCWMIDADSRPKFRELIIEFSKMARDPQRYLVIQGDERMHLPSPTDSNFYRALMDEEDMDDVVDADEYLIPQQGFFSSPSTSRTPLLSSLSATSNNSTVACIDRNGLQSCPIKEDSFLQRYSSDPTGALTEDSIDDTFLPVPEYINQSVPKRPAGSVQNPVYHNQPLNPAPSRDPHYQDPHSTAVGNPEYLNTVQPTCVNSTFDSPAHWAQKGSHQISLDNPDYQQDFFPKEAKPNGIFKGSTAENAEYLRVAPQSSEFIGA
# maps each entry to its log10(IC50)
measured-attribute: log10(IC50) (log10 of the value in µM)

molecule | obs-value
CC(C(=O)Nc1cc(-c2[nH]c3c(c2Nc2ccccc2)C(=O)N(C)CC3)ccn1)c1ccncc1 (single isomer, unassigned; (+)) [Example 73] | 0.83
Cc1ccccc1Nc1c(-c2ccnc(NC(=O)C(C)c3ccc(F)cc3)c2)[nH]c2c1C(=O)NC(C)(C)C2 (single isomer, unassigned; enantiomer 1) [Example 133] | -0.39
CC1(C)Cc2[nH]c(-c3ccnc(NC(=O)C(CC(F)F)c4ccc(F)cc4)c3)c(Nc3cccc(F)c3Cl)c2C(=O)N1 (single isomer, unassigned; (-)) [Example 110] | 0.62
CC1(C)Cc2[nH]c(-c3ccnc(NC(=O)Cc4ccc(F)cc4)c3)c(Nc3cccc(F)n3)c2C(=O)N1 [Example 127] | 1.23
O=C1NC2(CC2)Cc2[nH]c(-c3ccnc(NC(=O)C(CC(F)F)c4ccc(F)cc4)c3)c(Nc3ccccc3)c21 (single isomer, unassigned; enantiomer 1) [Example 148] | 0.53
CC(C(=O)Nc1cc(-c2[nH]c3c(c2Nc2ccccc2)C(=O)N(C)C(C)C3)ccn1)c1ccc(F)cc1 (single isomer, unassigned; (+)) [Example 96] | 0.85
CC1Cc2[nH]c(-c3ccnc(NC(=O)Cc4ccncc4)c3)c(Nc3ccccc3)c2C(=O)N1C (racemic) [Example 97] | -0.28
